ASSAY_TARGET: DAPK1 (Homo sapiens, UniProt P53355)
Construct: purchased ReactionBiology
Sequence (P53355 whole entry): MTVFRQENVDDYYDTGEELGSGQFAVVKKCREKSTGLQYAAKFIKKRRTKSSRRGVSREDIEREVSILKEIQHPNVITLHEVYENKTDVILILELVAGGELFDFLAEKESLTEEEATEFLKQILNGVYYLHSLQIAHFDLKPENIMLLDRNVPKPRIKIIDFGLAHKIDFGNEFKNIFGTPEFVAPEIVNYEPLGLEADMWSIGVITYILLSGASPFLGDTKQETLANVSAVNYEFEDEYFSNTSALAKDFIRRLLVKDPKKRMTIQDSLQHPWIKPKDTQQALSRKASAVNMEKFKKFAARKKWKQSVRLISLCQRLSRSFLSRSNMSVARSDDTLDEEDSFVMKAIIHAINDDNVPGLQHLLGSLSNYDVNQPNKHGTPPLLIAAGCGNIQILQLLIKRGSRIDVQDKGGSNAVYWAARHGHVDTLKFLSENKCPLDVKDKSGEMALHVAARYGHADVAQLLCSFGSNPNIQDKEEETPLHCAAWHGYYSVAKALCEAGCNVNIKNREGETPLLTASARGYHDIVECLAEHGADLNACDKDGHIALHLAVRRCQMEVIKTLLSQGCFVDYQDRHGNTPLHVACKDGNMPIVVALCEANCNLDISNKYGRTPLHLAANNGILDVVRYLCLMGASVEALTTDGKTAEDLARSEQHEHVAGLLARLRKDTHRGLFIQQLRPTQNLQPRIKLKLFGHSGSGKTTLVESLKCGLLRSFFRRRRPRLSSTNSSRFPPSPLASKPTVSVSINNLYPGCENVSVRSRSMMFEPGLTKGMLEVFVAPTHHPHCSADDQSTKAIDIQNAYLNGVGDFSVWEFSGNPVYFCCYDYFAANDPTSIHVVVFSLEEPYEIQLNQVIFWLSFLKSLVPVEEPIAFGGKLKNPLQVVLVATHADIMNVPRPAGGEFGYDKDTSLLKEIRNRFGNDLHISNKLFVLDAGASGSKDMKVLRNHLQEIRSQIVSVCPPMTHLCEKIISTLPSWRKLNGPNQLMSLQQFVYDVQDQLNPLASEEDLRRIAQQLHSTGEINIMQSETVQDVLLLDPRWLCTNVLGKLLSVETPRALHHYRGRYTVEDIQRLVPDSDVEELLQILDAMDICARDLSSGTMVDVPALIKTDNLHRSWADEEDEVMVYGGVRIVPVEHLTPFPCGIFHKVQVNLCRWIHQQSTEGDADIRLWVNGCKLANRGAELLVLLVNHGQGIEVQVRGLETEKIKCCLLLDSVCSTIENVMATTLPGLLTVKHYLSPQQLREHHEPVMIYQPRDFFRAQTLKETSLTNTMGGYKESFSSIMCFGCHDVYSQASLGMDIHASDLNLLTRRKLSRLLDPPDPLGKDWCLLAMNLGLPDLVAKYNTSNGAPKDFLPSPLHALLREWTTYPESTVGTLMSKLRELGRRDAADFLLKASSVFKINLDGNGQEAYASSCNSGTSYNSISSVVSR
ASSAY_EXPLANATION: Kinase activity test (ReactionBiology), % enzyme activity relative to DMSO
Assay type: biochemical
STATED_CONDITIONS: DAPK1; 10 uM; Average; read-out: % Enzyme Activity (relative to DMSO controls), Average
OUTCOME_MEASURE: remaining activity at 10 µM

INSERT INTO assay_data (compound, outcome_measure, obs_value) VALUES
  ('CC(=O)O[C@H]1C[C@@]2(C)[C@@H](C[C@@H](O)[C@H]3[C@@]4(C)CC[C@@H](O)[C@@H](C)[C@@H]4CC[C@@]32C)/C1=C(\CCC=C(C)C)C(=O)O [Fusidic acid]', 'remaining activity at 10 µM', '93.7%'),
  ('NC(=O)c1cccnc1 [Niacinamide, reference compound]', 'remaining activity at 10 µM', '100%'),
  ('CC(C)c1nc(CN(C)C(=O)N[C@H](C(=O)N[C@@H](Cc2ccccc2)C[C@H](O)[C@H](Cc2ccccc2)NC(=O)OCc2cncs2)C(C)C)cs1 [Ritonavir, reference compound]', 'remaining activity at 10 µM', '38.5%'),
  ('CC(C)(C)NC(=O)[C@@H]1C[C@@H]2CCCC[C@@H]2CN1C[C@@H](O)[C@H](Cc1ccccc1)NC(=O)[C@H](CC(N)=O)NC(=O)c1ccc2ccccc2n1 [Saquinavir, reference compound]', 'remaining activity at 10 µM', '27.8%'),
  ('Cc1nc(Nc2ncc(C(=O)Nc3c(C)cccc3Cl)s2)cc(N2CCN(CCO)CC2)n1 [Dasatinib, reference compound]', 'remaining activity at 10 µM', '51.4%'),
  ('C[C@]12CC[C@@H]3c4ccc(O)cc4CC[C@H]3[C@@H]1CC[C@@H]2O [Estradiol, reference compound]', 'remaining activity at 10 µM', '69%');

* * *

Recorded % Enzyme Activity (relative to DMSO controls), Average for the following molecules
ASSAY_TARGET: UniProt P35968
Sequence (P35968 20-1356): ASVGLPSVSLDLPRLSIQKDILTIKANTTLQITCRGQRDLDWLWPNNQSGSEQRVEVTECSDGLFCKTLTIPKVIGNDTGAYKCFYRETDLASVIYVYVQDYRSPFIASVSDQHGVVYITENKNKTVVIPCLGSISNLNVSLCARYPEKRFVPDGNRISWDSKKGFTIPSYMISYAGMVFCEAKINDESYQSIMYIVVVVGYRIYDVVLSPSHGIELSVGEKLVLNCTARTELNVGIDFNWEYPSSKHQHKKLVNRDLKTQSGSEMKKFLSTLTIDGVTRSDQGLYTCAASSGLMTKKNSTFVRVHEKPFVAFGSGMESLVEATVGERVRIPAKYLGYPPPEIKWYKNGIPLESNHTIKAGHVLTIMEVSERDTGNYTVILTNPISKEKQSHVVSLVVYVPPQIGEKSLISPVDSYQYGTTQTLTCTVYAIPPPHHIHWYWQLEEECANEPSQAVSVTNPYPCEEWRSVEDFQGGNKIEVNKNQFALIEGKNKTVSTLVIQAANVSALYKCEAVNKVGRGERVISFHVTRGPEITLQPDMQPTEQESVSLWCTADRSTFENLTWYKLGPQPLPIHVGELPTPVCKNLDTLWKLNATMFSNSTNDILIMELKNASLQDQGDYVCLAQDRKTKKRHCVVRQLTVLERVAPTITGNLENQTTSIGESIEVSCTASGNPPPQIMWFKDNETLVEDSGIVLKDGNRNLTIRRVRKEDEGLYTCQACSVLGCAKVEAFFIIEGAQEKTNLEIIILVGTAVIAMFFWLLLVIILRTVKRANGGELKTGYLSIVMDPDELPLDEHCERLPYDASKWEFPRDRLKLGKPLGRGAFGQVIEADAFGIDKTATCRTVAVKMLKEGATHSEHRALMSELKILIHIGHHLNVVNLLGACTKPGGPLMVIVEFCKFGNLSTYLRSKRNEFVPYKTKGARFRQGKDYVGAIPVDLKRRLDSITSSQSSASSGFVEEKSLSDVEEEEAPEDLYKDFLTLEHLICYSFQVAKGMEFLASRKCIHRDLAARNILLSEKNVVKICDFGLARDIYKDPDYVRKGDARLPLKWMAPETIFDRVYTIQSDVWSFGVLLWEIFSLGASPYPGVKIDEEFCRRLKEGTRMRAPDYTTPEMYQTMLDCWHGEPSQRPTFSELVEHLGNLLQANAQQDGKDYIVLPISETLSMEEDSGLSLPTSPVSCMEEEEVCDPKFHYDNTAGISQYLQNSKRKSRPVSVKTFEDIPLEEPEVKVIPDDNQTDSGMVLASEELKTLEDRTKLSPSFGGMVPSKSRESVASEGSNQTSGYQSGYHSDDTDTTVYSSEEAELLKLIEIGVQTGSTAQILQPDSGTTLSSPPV
ASSAY_EXPLANATION: Kinase activity test (ReactionBiology), % enzyme activity relative to DMSO
Type: biochemical
Design: purchased ReactionBiology
STATED_CONDITIONS: VEGFR2; 10 uM; Average
OUTCOME_MEASURE: % Enzyme Activity (relative to DMSO controls), Average (%)

INSERT INTO assay_data (molecule, obs_value) VALUES
  ('Fc1ccc([C@@H]2CCNC[C@H]2COc2ccc3c(c2)OCO3)cc1 [Paroxetine]', 108.08),
  ('Cc1nc(=O)c2cc(CN(C)c3ccc(C(=O)N[C@@H](CCC(=O)O)C(=O)O)s3)ccc2[nH]1 [Raltitrexed]', 105.59),
  ('C[C@H](O)[C@H](O)[C@H]1CNc2nc(N)[nH]c(=O)c2N1 [Sapropterin]', 98.14),
  ('COc1ccc2c3c1O[C@H]1C[C@@H](O)C=C[C@@]31CCN(C)C2 [Galantamine]', 93.22),
  ('CC1(C)S[C@@H]2[C@H](NC(=O)[C@H](N)c3ccccc3)C(=O)N2[C@H]1C(=O)O [Ampicillin]', 96.01);

* * *

ASSAY_TARGET: NEK2 (Homo sapiens, UniProt P51955)
Construct: purchased ReactionBiology
Sequence (P51955 whole entry): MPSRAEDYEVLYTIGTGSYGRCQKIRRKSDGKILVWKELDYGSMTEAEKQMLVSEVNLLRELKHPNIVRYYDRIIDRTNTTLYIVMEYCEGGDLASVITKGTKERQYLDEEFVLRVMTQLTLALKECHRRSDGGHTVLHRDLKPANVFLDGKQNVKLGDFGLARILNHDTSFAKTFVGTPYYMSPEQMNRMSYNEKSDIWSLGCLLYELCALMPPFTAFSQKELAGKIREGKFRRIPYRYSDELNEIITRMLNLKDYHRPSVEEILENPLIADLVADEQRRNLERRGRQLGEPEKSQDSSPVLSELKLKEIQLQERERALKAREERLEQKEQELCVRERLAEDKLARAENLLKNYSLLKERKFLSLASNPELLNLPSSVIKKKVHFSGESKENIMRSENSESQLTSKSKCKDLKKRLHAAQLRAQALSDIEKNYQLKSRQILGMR
ASSAY_EXPLANATION: Kinase activity test (ReactionBiology), % enzyme activity relative to DMSO;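 on % Enzyme Activity (relative to DMSO controls), Data 1: FDA-approved drugs chosen by structure-based repositioning, each screened at 10 or 1 µM for kinase activity, expressed as percent of DMSO controls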
Format: biochemical
STATED_CONDITIONS: NEK2; 1 uM; replicate Data 1; read-out: % Enzyme Activity (relative to DMSO controls), Data 1
hey, just use true (1) if measured remaining activity at 1 µM is less than 90%, otherwise false (0)

INSERT INTO results (compound, assay_target, assigned_category) VALUES
  ('CC/C(=C(/CC)c1ccc(O)cc1)c1ccc(O)cc1 [Diethylstilbestrol, reference compound]', 'NEK2 (Homo sapiens, UniProt P51955)', 'false (0)'),
  ('Cc1nc(Nc2ncc(C(=O)Nc3c(C)cccc3Cl)s2)cc(N2CCN(CCO)CC2)n1 [Dasatinib, reference compound]', 'NEK2 (Homo sapiens, UniProt P51955)', 'true (1)'),
  ('Nc1ccc2cc3ccc(N)cc3nc2c1 [Proflavine, reference compound]', 'NEK2 (Homo sapiens, UniProt P51955)', 'false (0)'),
  ('NC[C@H]1CC[C@H](C(=O)O)CC1', 'NEK2 (Homo sapiens, UniProt P51955)', 'true (1)'),
  ('C[C@]12CC[C@@H]3c4ccc(O)cc4CC[C@H]3[C@@H]1CC[C@@H]2O [Estradiol, reference compound]', 'NEK2 (Homo sapiens, UniProt P51955)', 'false (0)'),
  ('NC(=O)c1cccnc1 [Niacinamide, reference compound]', 'NEK2 (Homo sapiens, UniProt P51955)', 'true (1)'),
  ('Nc1ncnc2c1ncn2[C@@H]1O[C@H](CO)[C@@H](O)[C@H]1O [Adenosine, reference compound]', 'NEK2 (Homo sapiens, UniProt P51955)', 'true (1)'),
  ('Cc1cccc(C)c1OCC(=O)N[C@@H](Cc1ccccc1)[C@@H](O)C[C@H](Cc1ccccc1)NC(=O)[C@H](C(C)C)N1CCCNC1=O [Lopinavir, reference compound]', 'NEK2 (Homo sapiens, UniProt P51955)', 'false (0)'),
  ('CN1CCN(CCCN2c3ccccc3Sc3ccc(Cl)cc32)CC1 [Prochlorperazine, reference compound]', 'NEK2 (Homo sapiens, UniProt P51955)', 'true (1)');
